Taken from paper PMC5540273.

Below, each entry is listed alongside its reported %Inh.
System: WEE1
test settings: concentration: 1 μM, replicates: in singlicate; n = 1;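 note: KINOMEscan kinase panel screen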
Give the value, in units of %, as a plain number.

Using the record for "CC(C)c1cc(-c2ccc3c(N)n[nH]c3c2)nc(N)n1" , state its measured %Inh.
11

Using the record for "Cc1ccc(NC(=O)Nc2ccccc2F)cc1-c1ccc(C(=O)Nc2ccncc2)cc1" , state its measured %Inh.
26

Using the record for "CC(=O)c1c(C)c2cnc(Nc3ccn(C)n3)nc2n(C2CCCC2)c1=O" , state its measured %Inh.
0

Using the record for "O=C(Nc1n[nH]c2nc(-c3cccs3)c(Br)cc12)C1CC1" , state its measured %Inh.
0

Using the record for "CCn1c(-c2c(N)noc2C)nc2cnccc21" , state its measured %Inh.
18

Using the record for "Cl.Cl.Cl.N#Cc1ccc(CCNc2nccc(-c3cccc(CN4CCNCC4)c3)n2)cc1" , state its measured %Inh.
90.8

New cases:
Using the record for "CC(C)c1ccc(O)cc1Nc1ccnc2ccc(C(F)(F)F)cc12" , state its measured %Inh.
0

Using the record for "Cc1c(Cn2c3ccccc3n3c(=O)cc(N4CCOCC4)nc23)cccc1C(F)(F)F" , state its measured %Inh.
0

Using the record for "CCCCc1nn2ncccc2c1-c1ccnc(NC2CC2)n1" , state its measured %Inh.
34

Using the record for "Nc1cccc(-c2ccc3c(N)n[nH]c3c2)n1" , state its measured %Inh.
0

Using the record for "CNC(=O)c1ccc(C)c(-n2c(C)cc(OCc3ccc(F)cc3F)c(Br)c2=O)c1" , state its measured %Inh.
0

Using the record for "Fc1ccc(-c2nc3n(c2-c2ccncc2)CCS3)cc1" , state its measured %Inh.
3

Using the record for "Cc1ccccc1-c1cc(-c2c[nH]nc2-c2ccccn2)ccn1" , state its measured %Inh.
8

Using the record for COC(=O)c1cccc(NC(=O)NC2CCN(c3ccnc(Nc4ccc(F)cc4)n3)C2)c1 (stereo not drawn) , state its measured %Inh.
16

Using the record for "Cc1ccc(NC(=O)c2ccc(Cl)cc2)cc1-c1ccc(C(=O)Nc2ccncc2)cc1" , state its measured %Inh.
0

Using the record for "COc1ccc(CSc2nnc(-c3ccc4nccn4c3)o2)cc1C(F)(F)F" , state its measured %Inh.
9

* * *

System: MAST1
test settings: concentration: 1 μM, replicates: in singlicate; n = 1
Below, each entry is listed alongside its reported %Inh.
Give the value, in units of %, as a plain number.

Using the record for "CNC(=O)c1ccc(C)c(-n2c(C)cc(OCc3ccc(F)cc3F)c(Br)c2=O)c1" , state its measured %Inh.
0

Using the record for "CNCc1ccc2nc(NC(=O)c3ccc(C(C)(C)C)cc3)cn2c1" , state its measured %Inh.
50

Using the record for COC(=O)C(NC(=O)NC1CCN(c2ccnc(Nc3ccc(F)cc3)n2)C1)c1ccccc1 (stereo not shown) , state its measured %Inh.
0

New cases:
Using the record for "CC[C@@H]1CO[C@H](C(=O)Nc2ccccc2)CN1c1cc(-c2ccc3c(N)n[nH]c3c2)nc(NC)n1" , state its measured %Inh.
0

* * *

Test system: TSSK3
test settings: concentration: 1 μM, replicates: in singlicate; n = 1
Field: label. Allowed values: rule met (%Inh < 1%) or rule not met (%Inh >= 1%).

Field: example entries. Status: answers known.
Is 1% strictly greater than the compound's reported %Inh? compound: "O=C1NC(=O)C(c2ccc(Cl)cc2)=C1Nc1ccc(O)cc1"
rule met

Is 1% strictly greater than the compound's reported %Inh? compound: "CNc1nc(-c2ccc3c(N)n[nH]c3c2)cc(N2C[C@@H](C(=O)Nc3ccccc3)CC[C@H]2C)n1"
rule not met

Is 1% strictly greater than the compound's reported %Inh? compound: "Cc1ccc(NC(=O)Nc2ccccc2)cc1-c1ccc(C(=O)Nc2ccncc2)cc1"
rule met

Is 1% strictly greater than the compound's reported %Inh? compound: "O=c1cc(N2CCOCC2)nc2n(Cc3ccccc3F)ccn12"
rule not met

Is 1% strictly greater than the compound's reported %Inh? compound: "Nc1nccc(-c2c(-c3ccc(F)cc3)ncn2C2CCN(Cc3ccccc3)CC2)n1"
rule met

Is 1% strictly greater than the compound's reported %Inh? compound: COc1ccc(Nc2nccc(N3CCC(NC(=O)C(C)c4ccc(Cl)cc4)CC3)n2)cc1 (stereo not drawn)
rule not met

Is 1% strictly greater than the compound's reported %Inh? compound: "CC(=O)c1c(C)c2cnc(Nc3ccn(C)n3)nc2n(C2CCCC2)c1=O"
rule met

Is 1% strictly greater than the compound's reported %Inh? compound: "CNCc1ccc2nc(NC(=O)c3ccc(C(C)(C)C)cc3)cn2c1"
rule met

Is 1% strictly greater than the compound's reported %Inh? compound: "FC(F)(F)c1ccccc1-c1cc(-c2c[nH]nc2-c2ccccn2)ccn1"
rule not met

Is 1% strictly greater than the compound's reported %Inh? compound: COC(=O)C(Cc1ccccc1)NC(=O)NC1CCN(c2ccnc(Nc3ccc(F)cc3)n2)C1 (stereo not drawn)
rule not met

New cases:
Is 1% strictly greater than the compound's reported %Inh? compound: "CC(=O)c1c(C)c2cnc(Nc3ccc(N4CCNCC4)cn3)nc2n(C2CCCC2)c1=O"
rule met

Is 1% strictly greater than the compound's reported %Inh? compound: "Cc1ccc(-c2nc(Nc3ccncc3)c3ccccc3n2)s1"
rule not met
